Quick reference for EC50 among some molecules
target: human NPFF1R (Homo sapiens, UniProt Q9GZQ6); assay: [35S]-GTPγS binding assay; assay type: biochemical; design: expressed in transfected cells
Sequence (Q9GZQ6 whole entry): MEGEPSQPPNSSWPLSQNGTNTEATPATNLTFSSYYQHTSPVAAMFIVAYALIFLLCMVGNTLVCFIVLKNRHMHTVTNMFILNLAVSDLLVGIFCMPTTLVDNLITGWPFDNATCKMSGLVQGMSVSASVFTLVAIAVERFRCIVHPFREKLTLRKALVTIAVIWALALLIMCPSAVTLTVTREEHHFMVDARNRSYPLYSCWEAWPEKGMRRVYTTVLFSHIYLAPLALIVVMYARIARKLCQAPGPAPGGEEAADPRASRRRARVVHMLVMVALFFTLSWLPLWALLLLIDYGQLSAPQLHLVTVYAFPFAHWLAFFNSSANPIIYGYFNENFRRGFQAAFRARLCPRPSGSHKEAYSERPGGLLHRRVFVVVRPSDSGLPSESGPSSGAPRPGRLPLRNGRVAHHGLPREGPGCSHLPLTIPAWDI
Starred links: 1 amine or outer side, 2 acyl side, 3 side chain; linkers in the order of their positions; H or OH if unused. Non-standard residues stand in square brackets, D forms with d. Residues, ends and D or L forms follow the SMILES beside them. *: point of attachment. X1 = O=C1[C@@H](N[*:1])Cc2ccccc2CN1CCC(=O)[*:2]; Dmt = Cc1cc(O)cc(C)c1C[C@H](N)C(=O)O; X2 = c1ccc2[nH]c(*)nc2c1; X3 = c1ccc2oc(*)nc2c1; X4 = c1ccc2sc(*)nc2c1
Value kind: EC50 (nM)

- Molecule: "CNC(=O)[C@H](Cc1ccccc1)NC(=O)[C@@H](CCCNC(=N)N)NC(=O)[C@@H](N)Cc1c(C)cc(O)cc1C [KGFF13, H-Dmt-D-Arg-Phe-NHMe] (HELM PEPTIDE1{[Cc1cc(O)cc(C)c1C[C@H](N)C(=O)[*:2]].[dR].F.[CN[*:1]]}$$$$V2.0)"
  Readout units: "nM"
  Inequality operator: ">"
  Observed value: 10000
- Molecule: "Cc1cc(O)cc(C)c1C[C@H](N)C(=O)N[C@H](CCCNC(=N)N)C(=O)N[C@H]1Cc2ccccc2CN(CC(=O)N[C@@H](CCCNC(=N)N)C(=O)N[C@@H](Cc2ccccc2)C(N)=O)C1=O [KGFF01, H-Dmt-D-Arg-Aba-Gly-Arg-Phe-NH2]"
  Readout units: "nM"
  Inequality operator: "="
  Observed value: 155
- Molecule: "Cc1cc(O)cc(C)c1C[C@H](N)C(=O)N[C@H](CCCNC(=N)N)C(=O)N[C@H]1Cc2ccccc2CN(CCC(=O)N[C@@H](CCCCNc2nc3ccccc3[nH]2)C(=O)N[C@@H](Cc2ccccc2)C(N)=O)C1=O [KGFF14, H-Dmt-D-Arg-Aba-β-Ala-Lys(Bim)-Phe-NH2] (H-[Dmt][dR][X1]K(X2)F-NH2)"
  Readout units: "nM"
  Inequality operator: "="
  Observed value: 76
- Molecule: "Cc1cc(O)cc(C)c1C[C@H](N)C(=O)N[C@H](CCCNC(=N)N)C(=O)N[C@H]1Cc2ccccc2CNC1=O [KGFF12, H-Dmt-D-Arg-Aba-NH]"
  Readout units: "nM"
  Inequality operator: ">"
  Observed value: 10000
- Molecule: "Cc1cc(O)cc(C)c1C[C@H](N)C(=O)N[C@H](CCCNC(=N)N)C(=O)N[C@H]1Cc2ccccc2CN(CCC(=O)N[C@@H](CCCCNc2nc3ccccc3s2)C(=O)N[C@@H](Cc2ccccc2)C(N)=O)C1=O [KGFF16, H-Dmt-D-Arg-Aba-β-Ala-Lys(Bth)-Phe-NH2] (H-[Dmt][dR][X1]K(X4)F-NH2)"
  Readout units: "nM"
  Inequality operator: "="
  Observed value: 273
- Molecule: "Cc1cc(O)cc(C)c1C[C@H](N)C(=O)N[C@H](CCCNC(=N)N)C(=O)N[C@H]1Cc2ccccc2CN(CC(=O)N[C@@H](CCCN)C(=O)N[C@@H](Cc2ccccc2)C(N)=O)C1=O [KGFF04, H-Dmt-D-Arg-Aba-Gly-Orn-Phe-NH2]"
  Readout units: "nM"
  Inequality operator: ">"
  Observed value: 10000
- Molecule: "Cc1cc(O)cc(C)c1C[C@H](N)C(=O)N[C@H](CCCNC(=N)N)C(=O)N[C@@H](Cc1ccccc1)C(N)=O [KGFF07, H-Dmt-D-Arg-Phe-NH2] (HELM PEPTIDE1{[Cc1cc(O)cc(C)c1C[C@H](N)C(=O)[*:2]].[dR].F.[am]}$$$$V2.0)"
  Readout units: "nM"
  Inequality operator: "="
  Observed value: 87
- Molecule: "Cc1cc(O)cc(C)c1C[C@H](N)C(=O)N[C@H](CCCNC(=N)N)C(=O)N[C@H]1Cc2ccccc2CN(CCC(=O)N[C@@H](CCCCNc2nc3ccccc3o2)C(=O)N[C@@H](Cc2ccccc2)C(N)=O)C1=O [KGFF15, H-Dmt-D-Arg-Aba-β-Ala-Lys(Box)-Phe-NH2] (H-[Dmt][dR][X1]K(X3)F-NH2)"
  Readout units: "nM"
  Inequality operator: "="
  Observed value: 1020

====

# Lookup of reported pEC50 keyed by entry
Target: human MOPr (Homo sapiens, UniProt P35372)
Sequence (P35372 whole entry): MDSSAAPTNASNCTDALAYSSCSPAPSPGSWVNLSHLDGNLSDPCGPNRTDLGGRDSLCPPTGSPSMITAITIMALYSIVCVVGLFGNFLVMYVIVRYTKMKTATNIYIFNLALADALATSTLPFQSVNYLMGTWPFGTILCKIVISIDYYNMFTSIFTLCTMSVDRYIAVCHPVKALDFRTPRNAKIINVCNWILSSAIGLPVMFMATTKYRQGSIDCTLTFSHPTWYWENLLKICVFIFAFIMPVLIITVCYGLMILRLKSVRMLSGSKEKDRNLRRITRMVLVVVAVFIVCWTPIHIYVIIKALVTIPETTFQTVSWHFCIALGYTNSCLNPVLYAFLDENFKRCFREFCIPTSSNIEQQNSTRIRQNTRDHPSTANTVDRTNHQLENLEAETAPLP
Assay: cell-based
Assay type: cell-based
Design: expressed in transfected cells; HEK293-Glo20F cells (cAMP)
Details: Table 3a; HEK293-Glo20F-hMOPr cells; read-out: MOPr (cAMP) EC50
Protocol: Stimulation by endogenous RF-amide peptides or test compounds for [^35S]-GTPγS binding to membranes from CHO cells expressing human NPFF1R or NPFF2R, were examined as reported. 1.6. […] The cAMP responses were measured in presence of D-luciferin (1 mM).
pEC50: −log10 of the molar value. Starred links: 1 amine or outer side, 2 acyl side, 3 side chain; linkers in the order of their positions; H or OH if unused. Non-standard residues stand in square brackets, D forms with d. Residues, ends and D or L forms follow the SMILES beside them. *: point of attachment. X1 = O=C1[C@@H](N[*:1])Cc2ccccc2CN1CCC(=O)[*:2]; Dmt = Cc1cc(O)cc(C)c1C[C@H](N)C(=O)O; X3 = c1ccc2oc(*)nc2c1

- Compound: "Cc1cc(O)cc(C)c1C[C@H](N)C(=O)N[C@H](CCCNC(=N)N)C(=O)N[C@H]1Cc2ccccc2CN(CCC(=O)N[C@@H](CCCCNc2nc3ccccc3o2)C(=O)N[C@@H](Cc2ccccc2)C(N)=O)C1=O [KGFF15, H-Dmt-D-Arg-Aba-β-Ala-Lys(Box)-Phe-NH2] (H-[Dmt][dR][X1]K(X3)F-NH2)"
  pEC50: 8.39
- Compound: "Cc1cc(O)cc(C)c1C[C@H](N)C(=O)N[C@H](CCCNC(=N)N)C(=O)N[C@@H](Cc1ccccc1)C(N)=O [KGFF07, H-Dmt-D-Arg-Phe-NH2] (HELM PEPTIDE1{[Cc1cc(O)cc(C)c1C[C@H](N)C(=O)[*:2]].[dR].F.[am]}$$$$V2.0)"
  pEC50: 8.77

====

Target: UniProt:P35372
Assay: BRET1 β-arrestin-2 recruitment assay
Type: cell-based
Parameters: expressed in transfected cells; host or cells: HEK293 cells stably expressing eYFP-β-arrestin-2, transiently transfected with the Rluc8-MOP plasmid
Conditions: in words
Method: Peak response amplitudes were normalized to basal and maximal (cells permeabilized with 20 μM digitonin) fluorescence levels. […] Briefly, two days prior the experiment, HEK293 cells stably expressing eYFP-tagged β-arrestin-2 were transfected with the plasmid encoding Rluc8-MOP receptor. β-Arrestin-2 recruitment was measured at 37° C. in presence of 5 μM Coelenterazine H, 5 min after agonist addition.
Starred links: 1 amine or outer side, 2 acyl side, 3 side chain; linkers in the order of their positions; H or OH if unused. Non-standard residues stand in square brackets, D forms with d. Residues, ends and D or L forms follow the SMILES beside them. Nva(5-(4-Bn-piperidin-1-yl)) = N[C@@H](CCCN1CCC(Cc2ccccc2)CC1)C(=O)O; X1 = O=C1[C@@H](N[*:1])Cc2ccccc2CN1CCC(=O)[*:2]; Dmt = Cc1cc(O)cc(C)c1C[C@H](N)C(=O)O; dOrn = NCCC[C@@H](N)C(=O)O

- Compound: "Cc1cc(O)cc(C)c1C[C@H](N)C(=O)N[C@H](CCCN)C(=O)N[C@H]1Cc2ccccc2CN(CCC(=O)N[C@@H](CCCN2CCC(Cc3ccccc3)CC2)C(=O)N[C@@H](Cc2ccccc2)C(N)=O)C1=O [DP0028, H-Dmt-D-Orn-Aba-β-Ala-Bpa-Phe-NH2] (H-[Dmt][dOrn][X1][Nva(5-(4-Bn-piperidin-1-yl))]F-NH2)"
  β-arrestin-2 recruitment: "non-detectable"
- Compound: "Cc1cc(O)cc(C)c1C[C@H](N)C(=O)N(C)[C@H](C)C(=O)N[C@H]1Cc2c(ccc3ccccc23)CN(CC(=O)N[C@@H](CCCN2CCC(Cc3ccccc3)CC2)C(=O)N[C@@H](Cc2ccccc2)C(N)=O)C1=O [DP0014, H-Dmt-N(Me)-D-Ala-1AnaGly-Bpa-Phe-NH2]"
  β-arrestin-2 recruitment: "non-detectable"
- Compound: "Cc1cc(O)cc(C)c1C[C@H](N)C(=O)N[C@H](CCCNC(=N)N)C(=O)N[C@H]1Cc2c(ccc3ccccc23)CN(CC(=O)N[C@@H](CCCN2CCC(Cc3ccccc3)CC2)C(=O)N[C@@H](Cc2c[nH]c3ccccc23)C(N)=O)C1=O [DP0023, H-Dmt-D-Arg-1AnaGly-Bpa-Trp-NH2]"
  β-arrestin-2 recruitment: "non-detectable"
